Target: BG505_(SOSIP.664) Env trimer (HIV-1 BG505 (clade A), SOSIP.664 with …, stabilised)
Measured endpoint: binding result

- Binder: "561_01_23 (antibody, V domains shown) VH: QLVQSGGGVRRPGASVKISCETPEYTFTKYWLHWLRQAPGRGLEWMGVVSPHGGRPMFAFEFRDRLTLTRDIHTTTHYMELRGLTSDDTAVYFCARDSFGETFRGHDQPYQMDVWGGGTTVVVSS VL: EPVLTQSPGTLSLSPGEGATLSCRARQGFSADHVAWFQKKPGRPPRLLIFEASRRASGTPERFSGGGSGPEYTLTITRVEPEDFAVYYCQSYGSITPLVFGGGTRVDVK"
  Measured endpoint: "binding result"
  Result: "binds"
